conditions: in isopropanol, 310.65 K

# smiles_code, solubility (mole fraction)
records = [
    ("Cc1c(C(=O)O)cccc1[N+](=O)[O-]", 0.0438),
]

###

conditions: in methanol, 300.65 K

# smiles_code, solubility (mole fraction)
rows = [
    ("Cc1c(C(=O)O)cccc1[N+](=O)[O-]", 0.0354),
]

###

settings: in ethyl acetate, 298.15 K

# smiles_code, solubility (mole fraction)
rows = [
    ("Cc1c(C(=O)O)cccc1[N+](=O)[O-]", 0.0406),
]

###

conditions: in 2-butanone, 298.15 K
property_name: solubility (mole fraction)

# smiles_code, property_name, numeric_result
records = [
    ("Cc1c(C(=O)O)cccc1[N+](=O)[O-]", "solubility (mole fraction)", 0.0626),
]
